Cited source: ChEMBL document CHEMBL1932998

Recorded measurements of Activity, one per entry
target-or-test-system: UniProt:P97612
Sequence (P97612 whole entry): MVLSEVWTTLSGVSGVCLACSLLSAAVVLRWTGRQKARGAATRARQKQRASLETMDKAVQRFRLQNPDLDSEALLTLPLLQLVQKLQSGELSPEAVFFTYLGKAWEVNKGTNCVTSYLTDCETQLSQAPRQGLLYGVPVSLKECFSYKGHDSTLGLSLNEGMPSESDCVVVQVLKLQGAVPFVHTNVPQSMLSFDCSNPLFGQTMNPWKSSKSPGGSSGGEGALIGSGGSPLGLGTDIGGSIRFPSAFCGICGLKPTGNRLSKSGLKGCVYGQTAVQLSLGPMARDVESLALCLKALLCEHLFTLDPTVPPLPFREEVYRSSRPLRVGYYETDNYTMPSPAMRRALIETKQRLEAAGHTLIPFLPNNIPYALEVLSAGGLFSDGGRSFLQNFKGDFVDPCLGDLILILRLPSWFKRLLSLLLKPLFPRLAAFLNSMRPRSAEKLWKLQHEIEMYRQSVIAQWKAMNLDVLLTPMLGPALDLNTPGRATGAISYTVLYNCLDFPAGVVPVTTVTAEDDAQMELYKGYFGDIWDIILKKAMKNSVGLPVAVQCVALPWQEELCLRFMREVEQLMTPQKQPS
experimental-protocol: Inhibition of Sprague-Dawley rat brain FAAH assessed as residual activity at 10 uM after 60 mins by reverse phase HPLC-based fluorescence method

CCCCCCCC(=O)c1ncc(CCCCCS(=O)(=O)CCCN(C)C)o1 73%
CCCCCCCCCCCC(=O)c1ncc(CCCCCCS(=O)(=O)CCCN(C)C)o1 51%
CCCCCCCC(=O)c1ncc(CCS(=O)(=O)CCCN(C)C)o1 23%
CCCCCCCCCCCC(=O)c1ncc(CCSCCCN(C)C)o1 27%
CCCCCCCCCCCC(=O)c1ncc(CCS(=O)(=O)CCCN(C)C)o1 3%
CCCCCCCC(=O)c1ncc(CCSCCCN(C)C)o1 34%
CCCCCCCCCCCC(=O)c1ncc(CCCCCCS(=O)(=O)CCC[N+](C)(C)C)o1 31%
CCCCCCCC(=O)c1ncc(CCCCCCSCCCN(C)C)o1 78%
CCCCCCCC(=O)c1ncc(CCCSCCCN(C)C)o1 64%
CCCCCCCC(=O)c1ncc(CCCCCCSCCC[N+](C)(C)C)o1 82%

CCCCCCCCCCCC(=O)c1ncc(CCCCSCCC[N+](C)(C)C)o1 yielded Activity of 78%

CCCCCCCCCCCC(=O)c1ncc(CCCCCS(=O)(=O)CCC[N+](C)(C)C)o1 yielded Activity of 57%

CCCCCCCCCCCC(=O)c1ncc(CCCCSCCCN(C)C)o1 yielded Activity of 49%

CCCCCCCC(=O)c1ncc(CCCCS(=O)(=O)CCC[N+](C)(C)C)o1 yielded Activity of 83%

CCCCCCCCCCCC(=O)c1ncc(CCCCCCSCCC[N+](C)(C)C)o1 yielded Activity of 71%

CCCCCCCCCCCC(=O)c1ncc(CCSCCC[N+](C)(C)C)o1 yielded Activity of 78%

CCCCCCCC(=O)c1ncc(CCCS(=O)(=O)CCCN(C)C)o1 yielded Activity of 22%

CCCCCCCCCCCC(=O)c1ncc(CCCCCCSCCCN(C)C)o1 yielded Activity of 72%

CCCCCCCC(=O)c1ncc(CCS(=O)(=O)CCC[N+](C)(C)C)o1 yielded Activity of 61%

CCCCCCCCCCCC(=O)c1ncc(CCCSCCCN(C)C)o1 yielded Activity of 40%

CCCCCCCCCCCC(=O)c1ncc(CCS(=O)(=O)CCC[N+](C)(C)C)o1 yielded Activity of 11%
